// provenance: ChEMBL document CHEMBL1131754

# testTarget: Prostaglandin G/H synthase 1 (Homo sapiens)
# procedureSummary: In vitro inhibitory concentration required against Cyclooxygenase-1 (COX-1) determined in human whole blood (HWB) assay
# Format: tissue-based
recordedMetric: IC50

Entry CS(=O)(=O)c1ccc(-c2cc(C(F)(F)F)cnc2Oc2ccccc2)cc1 : IC50 on Prostaglandin G/H synthase 1 (Homo sapiens) = < 1240 nM

---

# procedureSummary: Half-life in rats
# Type: ADME, organism-based
# conditionParameters: rat, in vivo
recordedMetric: half-life

| sampleSmiles | half-life |
| --- | --- |
| CS(=O)(=O)c1ccc(-c2cc(C(F)(F)F)cnc2OCC2(O)CCCC2)cc1 | ≤ 4 h |

We now examine a further compound.
For CC(C)(O)COc1ncc(C(F)(F)F)cc1-c1ccc(S(C)(=O)=O)cc1 the compound record lists half-life as > 12 h

---

# testTarget: Prostaglandin G/H synthase 1 (Homo sapiens, UniProt P23219)
# Sequence (P23219 whole entry): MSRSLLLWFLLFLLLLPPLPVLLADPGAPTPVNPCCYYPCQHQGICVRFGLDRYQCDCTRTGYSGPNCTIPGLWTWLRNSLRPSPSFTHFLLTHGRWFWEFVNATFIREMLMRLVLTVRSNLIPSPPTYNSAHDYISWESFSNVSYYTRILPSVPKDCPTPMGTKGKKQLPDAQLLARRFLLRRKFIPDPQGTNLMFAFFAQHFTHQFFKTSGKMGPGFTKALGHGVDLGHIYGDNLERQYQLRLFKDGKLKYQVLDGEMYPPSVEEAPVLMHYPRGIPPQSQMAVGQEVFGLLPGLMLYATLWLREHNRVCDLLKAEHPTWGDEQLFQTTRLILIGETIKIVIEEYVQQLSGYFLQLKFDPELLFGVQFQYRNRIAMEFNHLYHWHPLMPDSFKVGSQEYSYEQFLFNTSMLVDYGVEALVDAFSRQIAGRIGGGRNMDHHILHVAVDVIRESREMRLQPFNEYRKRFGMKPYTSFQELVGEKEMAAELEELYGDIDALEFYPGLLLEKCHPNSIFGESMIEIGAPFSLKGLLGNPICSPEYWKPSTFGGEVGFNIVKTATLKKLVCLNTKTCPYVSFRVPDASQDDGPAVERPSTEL
recordedMetric: IC50

| compound | IC50 |
| --- | --- |
| CC(C)(O)COc1ncc(C(F)(F)F)cc1-c1ccc(S(C)(=O)=O)cc1 | > 100 µM |
| CS(=O)(=O)c1ccc(-c2cc(C(F)(F)F)cnc2OC(C(F)(F)F)C(F)(F)F)cc1 | > 100 µM |
| C[C@H](CO)Sc1ncc(C(F)(F)F)cc1-c1ccc(S(C)(=O)=O)cc1 | 29 µM |
| CS(=O)(=O)c1ccc(-c2cc(C(F)(F)F)cnc2OCc2ccc(Cl)cc2)cc1 | > 100 µM |
| C[C@]1(O)CCC[C@H]1Oc1ncc(C(F)(F)F)cc1-c1ccc(S(C)(=O)=O)cc1 | > 100 µM |
| CCC(O)(CC)[C@H](C)Oc1ncc(C(F)(F)F)cc1-c1ccc(S(C)(=O)=O)cc1 | > 100 µM |

Below are some compounds; for each one, tell me its IC50.
1. C[C@H](Oc1ncc(C(F)(F)F)cc1-c1ccc(S(C)(=O)=O)cc1)C(C)(C)O
2. CS(=O)(=O)c1ccc(-c2cc(C(F)(F)F)cnc2OCC2(O)CCCC2)cc1
3. CS(=O)(=O)c1ccc(-c2cc(C(F)(F)F)cnc2OCC(F)(F)F)cc1
4. CS(=O)(=O)c1ccc(-c2cc(C(F)(F)F)cnc2N2CCCC(CO)C2)cc1 (stereo not given)

Reply text:
> 100 µM
83 µM
> 100 µM
41 µM

---

# procedureSummary: Half-life in rats with metabolic oxidation
# Assay type: ADME, organism-based
# conditionParameters: rat, in vivo
recordedMetric: half-life

In plain terms, C[C@H](CO)Sc1ncc(C(F)(F)F)cc1-c1ccc(S(C)(=O)=O)cc1 has a documented half-life of < 2 h

---

# procedureSummary: Cmax in rats determined 6 hours after oral dosing of 20 mg/kg
# Type: ADME, organism-based
# Design: dose 20 mg/kg, route oral
# conditionParameters: rat, in vivo
recordedMetric: Cmax (nM)
Give bare numbers, in nM.

Lab note: measured Cmax of CS(=O)(=O)c1ccc(-c2cc(C(F)(F)F)cnc2OCC(F)(F)F)cc1 was 2400

---

# procedureSummary: Maximum concentration in rats
# Assay type: ADME, organism-based
# conditionParameters: rat, in vivo
recordedMetric: Cmax (µM)
Numbers only, in µM.

Memo: C[C@]1(O)CCC[C@H]1Oc1ncc(C(F)(F)F)cc1-c1ccc(S(C)(=O)=O)cc1 , reported Cmax: 9
